- measurement target: HA–KLC2, O88448
- Sequence (O88448 whole entry): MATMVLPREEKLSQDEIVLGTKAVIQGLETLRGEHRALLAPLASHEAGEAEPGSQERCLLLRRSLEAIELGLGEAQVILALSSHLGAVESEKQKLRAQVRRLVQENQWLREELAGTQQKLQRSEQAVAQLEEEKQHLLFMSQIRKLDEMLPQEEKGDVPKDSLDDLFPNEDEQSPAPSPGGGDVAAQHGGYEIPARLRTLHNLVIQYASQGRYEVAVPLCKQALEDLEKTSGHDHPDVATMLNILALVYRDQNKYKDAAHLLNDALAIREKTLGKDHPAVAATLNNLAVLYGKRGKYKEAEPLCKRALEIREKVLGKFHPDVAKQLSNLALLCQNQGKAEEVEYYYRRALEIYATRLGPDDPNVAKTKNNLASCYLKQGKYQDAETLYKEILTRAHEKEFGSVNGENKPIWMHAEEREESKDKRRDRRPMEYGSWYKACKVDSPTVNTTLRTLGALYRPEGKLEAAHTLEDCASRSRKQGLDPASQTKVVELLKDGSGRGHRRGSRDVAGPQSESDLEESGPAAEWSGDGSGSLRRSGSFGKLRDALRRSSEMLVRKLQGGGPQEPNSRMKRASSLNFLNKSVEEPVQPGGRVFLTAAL
- run description: GST pull-down, immunoblot (IB: HA) quantified
- test conditions: chain shown with the change; lysates of 293T cells co-expressing HA-KHC and HA-KLC2 (kinesin-1 tetramer); three independent experiments; parent: est. 1.0; read off a plot
readout: ratio to parent
Lab note: record just the number, no unit beside it.

## Input Respond only with ratio to parent recorded for GST–SKIP(1-310), Q8IWE5 W236A; E237A (protein) MEPGEVKDRILENISLSVKKLQSYFAACEDEIPAIRNHDKVLQRLCEHLDHALLYGLQDLSSGYWVLVVHFTRREAIKQIEVLQHVATNLGRSRAWLYLALNENSLESYLRLFQENLGLLHKYYVKNALVCSHDHLTLFLTLVSGLEFIRFELDLDAPYLDLAPYMPDYYKPQYLLDFEDRLPSSVHGSDSLSLNSFNSVTSTNLEWDDSAIAPSSEDYDFGDVFPAVPSVPSTDAADGDLTDTVSGPRSTASDLTSSKASTRSPTQRQNPFNEEPAETVSSSDTTPVHTTSQEKEEAQALDPPDACTEL
## Output 0.95
